Molecular target: human δ receptors (Homo sapiens)
Sequence (P41143 whole entry): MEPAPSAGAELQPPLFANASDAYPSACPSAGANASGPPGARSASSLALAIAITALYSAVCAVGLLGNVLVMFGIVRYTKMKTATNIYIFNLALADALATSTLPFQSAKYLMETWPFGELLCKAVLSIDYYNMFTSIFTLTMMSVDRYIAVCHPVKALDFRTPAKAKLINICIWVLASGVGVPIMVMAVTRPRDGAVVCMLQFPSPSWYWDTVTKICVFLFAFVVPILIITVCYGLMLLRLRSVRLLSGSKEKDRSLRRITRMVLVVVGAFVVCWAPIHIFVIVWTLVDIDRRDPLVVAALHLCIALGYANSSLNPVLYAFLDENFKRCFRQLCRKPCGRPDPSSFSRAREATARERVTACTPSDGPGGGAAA
Assay: GTP[γ]35S binding functional assay, HEK-293S membranes expressing cloned human δ receptors
Protocol: The agonist activity of the compounds is measured by determining the degree to which the compounds receptor complex activates the binding of GTP to G-proteins to which the receptors are coupled. […] The EC50 and Emax values of compounds are determined from dose-response curves. […] For human δ receptor functional assays, EC50 (low) is measured when the human δ receptors used in the assay were expressed at lower levels in comparison with those used in determining EC50 (high). […]
Parameter measured: EC50

| Compound | EC50 |
| --- | --- |
| CCN(CC)C(=O)c1ccc(C(=C2CCN(Cc3ccsc3)CC2)c2cccc(NC(C)=O)c2)cc1 [Compound 4] | 1.46 to 2.65 nM |

Moving on to another compound below.
I have this compound here, CCN(CC)C(=O)c1ccc(C(=C2CCN(Cc3ccccc3)CC2)c2cccc(NC(C)=O)c2)cc1 [Compound 3] , and I need its recorded EC50. 1.46 to 2.65 nM
